Origin of values: patent US7183440B2

system: HeLa cells; experiment: in vitro; details: read-out: Toxicity Neutral Red LC50/μM; HeLa cells; concentration that killed half the cells
metric.name: CC50 (µM)
Just the number in µM, nothing appended.

CC50 reading for COC(=O)[C@H](CS[C@@H]1CC(=O)C[C@H]1NC(=O)Oc1ccccc1)NC(=O)OC(C)(C)C : 76

* * *

experiment: in vitro
metric.name: CC50 at 24 h (µM)
Unit µM implied. Number only.

For O=C1C=CC(NC(=O)Oc2ccccc2)C1 (stereo not shown) the molecule record lists CC50 at 24 h as 74

* * *

Listed molecules paired with reported CC50
Tested on: HeLa cells
Assay: in vitro
Type: cell-based
Settings: human, 8 h
Experimental: HeLa cells were plated in 96-well microtiter plates in 100 μl culture medium (4×10^4/well). After 20 hours, the cells were exposed to the test compounds at different dilutions and incubated for the next 8 h at 37° C. in a 5% CO2 humidified atmosphere. After 6 h incubation, the Alamar Blue was added in an amount equal to 10% of the culture volume (10 μl). Two hours after the addition of the Alamar Blue, the fluorescence was measured using a Victor 1420 microplate reader.

Note to self: CC50 recorded for O=C1C=CC(NC(=O)c2ccccc2)C1 (stereo not shown) [CTC-171, N-(4-Oxocyclopent-2-enyl)-benzamide] was > 800 µM

* * *

assay: in vitro; format: cell-based; settings: monkey, 50% lethal dose/concentration, neutral red assay, 37RC cells, read-out: LC50/μM
metric.name: CC50 at 24 h (µM)
Value expressed in µM; do not type the unit.

>>> df
                                   compound   metric_name  unit_of_measurement  recorded_value
0  CC(C)(C)OC(=O)NC1C=CC(=O)/C1=C/c1ccccc1 (stereo not drawn)  CC50 at 24 h                   µM              33
1  CC(C)/C=C1/C(=O)C=CC1NC(=O)OC(C)(C)C (stereo not drawn)  CC50 at 24 h                   µM               4

// recorded CC50 at 24 h for CC(C)/C=C1/C(=O)C=C[C@H]1NC(=O)OC(C)(C)C : 4

* * *

system: Sendai virus; assay: Replication of Sendai virus in 37RC cells, virus yield by haemagglutinin titration; format: cell-based; conditions: Respirovirus muris; 50% inhibitory dose/concentration at 24 hours, Sendai virus in 37RC cells; read-out: ID50/μM
Below, each entry is listed with its recorded IC50.
State the answer as a number, implicitly in µM.

                                   compound  recorded_value
0  O=C1C=CC(NC(=O)c2ccccc2)C1 (stereo not drawn) [CTC-171, N-(4-Oxocyclopent-2-enyl)-benzamide]              20
1  CC(C)/C=C1/C(=O)C=C[C@@H]1NC(=O)OC(C)(C)C               1
2  CC1C=CC(=O)/C1=C/c1ccccc1 (stereo not drawn)             0.9
3  CCCCC1C=CC(=O)/C1=C/CC(C)C (stereo not drawn)             0.3
4  CC(C)(C)OC(=O)NC1C=CC(=O)C1 (stereo not drawn)              20

Alright, here's another compound for you.
Note to self: IC50 recorded for CC(C)/C=C1/C(=O)C=C[C@H]1NC(=O)OC(C)(C)C was 0.4
